// provenance: ChEMBL document CHEMBL2062419

Tested on: Human alphaherpesvirus 1
Test: Antiviral activity against HSV1 KOS infected in HEL cells by viral CPE assay
Format: functional, organism-based
Conditions: Human alphaherpesvirus 1, KOS
pEC50: −log10 of the molar value.
measureName: pEC50

> print(dat)
                                   molecule  measurename  assayresult
1  CCCCCCCCCCCCCCCCOCCCOP(=O)(CCOCCn1cnc2c(=O)[nH]cnc21)OCCCOCCCCCCCCCCCCCCCC        pEC50       < 3.93
2  CCCCCCCCCCCCCCCCOCCCOP(=O)(CCOCCn1cnc2c(=O)[nH]c(N)nc21)OCCCOCCCCCCCCCCCCCCCC        pEC50       < 3.94
3  CCCCCCCCCCCCCCCCOCCCOP(=O)(O)CO[C@H](CO)Cn1cnc2c(=O)[nH]cnc21        pEC50       < 5.17
4  CCCCCCCCCCCCCCCCOCCCOP(=O)(CO[C@H](CO)Cn1cnc2c(=O)[nH]cnc21)OCCCOCCCCCCCCCCCCCCCC        pEC50       < 3.94
5  CCCCCCCCCCCCCCCCOCCCOP1(=O)CO[C@@H](Cn2cnc3c(=O)[nH]cnc32)CO1 (mixture of isomers)        pEC50       < 5.15
6  CCCCCCCCCCCCCCCCOCCCOP(=O)(O)CCOCCn1cnc2c(=O)[nH]cnc21        pEC50       < 4.46
